ASSAY METHOD TEXT: Cytotoxicity in normal cell line (MTT)
Assay type: cell-based, human
CONDITION: human, HaCaT cells (keratinocyte cell line); HaCaT; peptide 50 μM; 24 hours; MTT; read-out: Cell survival ability %
Ends that are not written are not given here.
Here, each record is paired with measured viability at 24 h, 50 µM data.
Please give a number only; it is taken to be in %.

{"columns": ["SUBSTANCE", "MEASUREMENT LABEL", "ENDPOINT RESULT"],
 "data": [
  ["FLRFIGSVIHGIGHLVHHIGVAL-NH2 [Clavaspirin]", "viability at 24 h, 50 µM", 3]
]}

The record that follows has no viability at 24 h, 50 µM shown yet.
Asked: Entry FLRFIGSVKHGKGHLVHHIGVAL-NH2 [CSP-4] has what viability at 24 h, 50 µM?
Given back: 100
